Source: patent US9481676B2

# Lookup of reported inhibition at 1 µM keyed by entry
- test-target: human recombinant serotonin (5-Hydroxytryptamine) 5-HT2A receptor (Homo sapiens, UniProt P28223)
- Construct: expressed in transfected cells; host or cells: CHO-K1 cells
- Sequence (P28223 whole entry): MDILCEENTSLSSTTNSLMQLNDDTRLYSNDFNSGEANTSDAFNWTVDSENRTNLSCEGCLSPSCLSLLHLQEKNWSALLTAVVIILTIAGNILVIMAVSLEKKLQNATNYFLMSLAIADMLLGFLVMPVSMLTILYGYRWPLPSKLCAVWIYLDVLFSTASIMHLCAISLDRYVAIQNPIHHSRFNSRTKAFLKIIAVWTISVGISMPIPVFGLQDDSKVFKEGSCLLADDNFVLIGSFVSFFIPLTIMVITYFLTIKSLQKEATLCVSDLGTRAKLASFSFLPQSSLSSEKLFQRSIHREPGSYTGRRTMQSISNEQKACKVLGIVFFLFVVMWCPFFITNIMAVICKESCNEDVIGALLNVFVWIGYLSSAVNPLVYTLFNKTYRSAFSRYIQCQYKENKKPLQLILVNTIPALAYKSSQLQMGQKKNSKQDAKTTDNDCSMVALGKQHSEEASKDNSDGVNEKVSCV
- experimental-protocol: Serotonin 5-HT2A radioligand binding ([3H]Ketanserin)
- measurement-context: compound at 1 μM; read-out: Serotonin (1 μM) 5-HT2A, percent inhibition of specific binding
Write down the numeric answer in % and omit the unit.

Example cases with answers are listed next.
>  <compound>
CN1CCc2c(n(CC(=O)N(C)C3CCCCC3)c3ccc(Cl)cc23)CC1 [Compound No. 74]

>  <obs-value>
27

$$$$
>  <compound>
C/C(=C/n1c2c(c3cc(C)ccc31)CCN(C)CC2)c1cccc(F)c1 [Compound No. 251]

>  <obs-value>
101

$$$$
>  <compound>
Cc1ccc2c(c1)c1c(n2C(=O)Cc2ccc(F)cc2)CCN(C)CC1 [Compound No. 285]

>  <obs-value>
100

$$$$
>  <compound>
Cc1ccc2c(c1)c1c(n2CC(O)c2ccccc2F)CCN(C)CC1 (stereo not drawn) [Compound No. 41]

>  <obs-value>
99

$$$$
>  <compound>
Cc1ccc2c(c1)c1c(n2CCc2ccncc2)CCN(C)CC1 [Compound No. 6]

>  <obs-value>
96

$$$$
>  <compound>
C/C(=C\n1c2c(c3cc(Cl)ccc31)CCN(C)CC2)c1cccc(F)c1 [Compound No. 250]

>  <obs-value>
100

$$$$
>  <compound>
C/C(=C\n1c2c(c3cc(Cl)ccc31)CCN(C)CC2)c1ccc(F)c(F)c1 [Compound No. 155]

>  <obs-value>
99

$$$$
>  <compound>
Cc1ccc2c(c1)c1c(n2CCc2ccccn2)CCN(C)CC1 [Compound No. 9]

>  <obs-value>
96

$$$$

Consider the compound CN1CCc2c(n(C#Cc3ccc(Cl)cc3)c3ccc(Cl)cc23)CC1 [Compound No. 282] and give its recorded inhibition at 1 µM.
98

Name the recorded inhibition at 1 µM of the compound listed here: CN1CCc2c(n(CCc3ccccc3Cl)c3ccc(Cl)cc23)CC1 [Compound No. 29]
100

For the compound COc1ccc(C(O)Cn2c3c(c4cc(C)ccc42)CCN(C)CC3)cc1 (stereo not drawn) [Compound No. 48] , give its reported inhibition at 1 µM.
97

* * *

- test-target: human recombinant dopamine D2L receptor (Homo sapiens)
- Construct: expressed in transfected cells; host or cells: CHO cells
- Sequence (P14416 whole entry): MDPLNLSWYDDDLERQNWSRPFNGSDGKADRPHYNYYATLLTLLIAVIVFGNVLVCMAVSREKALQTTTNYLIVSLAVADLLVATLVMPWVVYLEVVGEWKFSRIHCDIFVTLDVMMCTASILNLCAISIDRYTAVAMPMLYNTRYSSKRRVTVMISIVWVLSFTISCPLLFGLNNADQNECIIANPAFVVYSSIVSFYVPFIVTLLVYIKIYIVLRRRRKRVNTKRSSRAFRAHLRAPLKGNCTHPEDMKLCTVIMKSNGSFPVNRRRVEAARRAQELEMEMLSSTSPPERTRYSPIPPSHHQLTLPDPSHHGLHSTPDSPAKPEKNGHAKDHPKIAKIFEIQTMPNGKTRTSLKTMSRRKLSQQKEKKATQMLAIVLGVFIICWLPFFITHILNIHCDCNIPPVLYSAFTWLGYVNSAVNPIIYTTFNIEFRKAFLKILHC
- experimental-protocol: Dopamine D2L radioligand binding ([3H]Spiperone)
- measurement-context: compound at 1 μM; read-out: Dopamine (1 μM) D2L, percent inhibition of specific binding
observation-type: inhibition at 1 µM (%)
# value in %; strip the unit string

Answered examples (5):
>  <query-smiles>
Cc1ccc2c(c1)c1c(n2CCc2ccccn2)CCN(C)CC1

>  <readout-units>
%

>  <inhibition at 1 µM>
20

$$$$
>  <query-smiles>
Cc1ccc2c(c1)c1c(n2CC(=O)NC(C)C)CCN(C)CC1

>  <readout-units>
%

>  <inhibition at 1 µM>
6

$$$$
>  <query-smiles>
C/C(=C/n1c2c(c3cc(Cl)ccc31)CCN(C)CC2)c1ccccc1Cl

>  <readout-units>
%

>  <inhibition at 1 µM>
43

$$$$
>  <query-smiles>
Cc1ccc2c(c1)c1c(n2/C=C/c2ccc(Cl)cc2)CCN(C)CC1

>  <readout-units>
%

>  <inhibition at 1 µM>
42

$$$$
>  <query-smiles>
C/C(=C/n1c2c(c3cc(C)ccc31)CCN(C)CC2)c1ccc(Cl)cc1Cl

>  <readout-units>
%

>  <inhibition at 1 µM>
34

$$$$

For the molecule "CN1CCc2c(n(CCc3ccncc3)c3ccc(Cl)cc23)CC1" , give its measured inhibition at 1 µM value.
34

Tell me inhibition at 1 µM reported for "COc1ccc(/C=C/n2c3c(c4cc(C)ccc42)CCN(C)CC3)c(F)c1"
48

Please list inhibition at 1 µM recorded for the molecule "COc1ccc(/C(C)=C/n2c3c(c4cc(Cl)ccc42)CCN(C)CC3)cc1"
17

Supply measured inhibition at 1 µM of "CN1CCc2c(n(/C=C/c3ccccc3)c3ccc(Cl)cc23)CC1" in your reply.
73

* * *

- test-target: human recombinant serotonin (5-Hydroxytryptamine) 5-HT6 receptor (Homo sapiens)
- Construct: expressed in transfected cells; host or cells: human HeLa cells
- Sequence (P50406 whole entry): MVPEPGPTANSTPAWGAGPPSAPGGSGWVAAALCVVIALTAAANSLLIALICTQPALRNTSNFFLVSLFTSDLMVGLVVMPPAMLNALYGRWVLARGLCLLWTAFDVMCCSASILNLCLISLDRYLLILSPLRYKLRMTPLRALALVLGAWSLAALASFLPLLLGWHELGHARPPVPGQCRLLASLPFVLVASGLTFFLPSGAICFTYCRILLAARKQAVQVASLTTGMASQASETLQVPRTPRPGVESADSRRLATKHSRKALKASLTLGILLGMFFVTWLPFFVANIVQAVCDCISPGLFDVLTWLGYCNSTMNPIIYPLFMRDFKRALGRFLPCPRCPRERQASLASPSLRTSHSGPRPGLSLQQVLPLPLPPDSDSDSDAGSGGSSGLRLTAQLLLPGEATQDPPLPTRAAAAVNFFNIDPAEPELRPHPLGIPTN
- experimental-protocol: Serotonin 5-HT6 radioligand binding ([3H]LSD)
- measurement-context: compound at 1 μM; read-out: Serotonin (1 μM) 5-HT6, percent inhibition of specific binding
observation-type: inhibition at 1 µM (%)
Express it in %; write the number only.

Worked cases, answers included:
>  <compound>
Cc1ccc(C(O)Cn2c3c(c4cc(Cl)ccc42)CCN(C)CC3)cc1 (stereo not drawn)

>  <test-target>
human recombinant serotonin (5-Hydroxytryptamine) 5-HT6 receptor (Homo sapiens)

>  <observation-type>
inhibition at 1 µM

>  <obs-value>
87

$$$$
>  <compound>
C/C(=C\n1c2c(c3cc(C)ccc31)CCN(C)CC2)c1cccnc1

>  <test-target>
human recombinant serotonin (5-Hydroxytryptamine) 5-HT6 receptor (Homo sapiens)

>  <observation-type>
inhibition at 1 µM

>  <obs-value>
74

$$$$
>  <compound>
C/C(=C\n1c2c(c3cc(Cl)ccc31)CCN(C)CC2)c1ccc(Cl)cc1

>  <test-target>
human recombinant serotonin (5-Hydroxytryptamine) 5-HT6 receptor (Homo sapiens)

>  <observation-type>
inhibition at 1 µM

>  <obs-value>
99

$$$$
>  <compound>
Cc1ccc2c(c1)c1c(n2/C=C/c2ccccc2)CCN(C)CC1

>  <test-target>
human recombinant serotonin (5-Hydroxytryptamine) 5-HT6 receptor (Homo sapiens)

>  <observation-type>
inhibition at 1 µM

>  <obs-value>
102

$$$$
>  <compound>
CN1CCc2c(n(CC(=O)OCc3ccccc3)c3ccc(Cl)cc23)CC1

>  <test-target>
human recombinant serotonin (5-Hydroxytryptamine) 5-HT6 receptor (Homo sapiens)

>  <observation-type>
inhibition at 1 µM

>  <obs-value>
-2

$$$$

Please tell me the measured inhibition at 1 µM for "CN1CCc2c(n(CCc3ccc(C(=O)O)nc3)c3ccc(Cl)cc23)CC1" ; system: human recombinant serotonin (5-Hydroxytryptamine) 5-HT6 receptor (Homo sapiens).
30

Give measured inhibition at 1 µM for "COc1ccc(C#Cn2c3c(c4cc(C)ccc42)CCN(C)CC3)cc1F" (human recombinant serotonin (5-Hydroxytryptamine) 5-HT6 receptor (Homo sapiens)).
42

// fetch inhibition at 1 µM for "C/C(=C\n1c2c(c3cc(Cl)ccc31)CCN(C)CC2)c1ccccc1F" ; system: human recombinant serotonin (5-Hydroxytryptamine) 5-HT6 receptor (Homo sapiens)
99

Provide inhibition at 1 µM, system human recombinant serotonin (5-Hydroxytryptamine) 5-HT6 receptor (Homo sapiens), entry "CN1CCc2c(n(CC(=O)Nc3ccc(F)cc3)c3ccc(Cl)cc23)CC1"
12

State, for human recombinant serotonin (5-Hydroxytryptamine) 5-HT6 receptor (Homo sapiens), measured inhibition at 1 µM of the compound listed here: "C/C(=C\n1c2c(c3cc(C)ccc31)CCN(C)CC2)c1ccc(F)c(F)c1"
96

Given "Cc1ccc2c(c1)c1c(n2CCc2cncc(Cl)c2)CCN(C)CC1" , report its inhibition at 1 µM on human recombinant serotonin (5-Hydroxytryptamine) 5-HT6 receptor (Homo sapiens).
83

Report its inhibition at 1 µM with human recombinant serotonin (5-Hydroxytryptamine) 5-HT6 receptor (Homo sapiens) as the test system: "CN1CCc2c(n(CCc3ccccc3Cl)c3ccc(Cl)cc23)CC1"
103

Look up human recombinant serotonin (5-Hydroxytryptamine) 5-HT6 receptor (Homo sapiens) data: inhibition at 1 µM of "Cc1ccc2c(c1)c1c(n2CC(=O)NC(C)C)CCN(C)CC1" , then report it.
-10

Would you please give the reported inhibition at 1 µM of "CN1CCc2c(n(CCc3cncc(Cl)c3)c3ccc(Cl)cc23)CC1" with human recombinant serotonin (5-Hydroxytryptamine) 5-HT6 receptor (Homo sapiens)?
97

Give inhibition at 1 µM only, for "C/C(=C\n1c2c(c3cc(Cl)ccc31)CCN(C)CC2)c1ccccc1Cl" , using human recombinant serotonin (5-Hydroxytryptamine) 5-HT6 receptor (Homo sapiens) data.
97

Quote human recombinant serotonin (5-Hydroxytryptamine) 5-HT6 receptor (Homo sapiens) inhibition at 1 µM for entry "C/C(=C\n1c2c(c3cc(C)ccc31)CCN(C)CC2)c1ccncc1" .
103

Look up and report measured inhibition at 1 µM (human recombinant serotonin (5-Hydroxytryptamine) 5-HT6 receptor (Homo sapiens)) for the following compound: "Cc1ccc(CCn2c3c(c4cc(Cl)ccc42)CCN(C)CC3)cc1"
98

Answer briefly: inhibition at 1 µM recorded on human recombinant serotonin (5-Hydroxytryptamine) 5-HT6 receptor (Homo sapiens) for "Cc1ccc2c(c1)c1c(n2CCc2ccc(Cl)cc2)CCN(C)CC1"
95

* * *

- test-target: human recombinant serotonin (5-Hydroxytryptamine) 5-HT2A receptor (Homo sapiens)
- Construct: expressed in transfected cells; host or cells: CHO-K1 cells
- experimental-protocol: Serotonin 5-HT2A radioligand binding ([3H]Ketanserin)
- measurement-context: compound at 1 μM; read-out: Serotonin (1 μM) 5-HT2A, percent inhibition of specific binding
observation-type: inhibition at 1 µM (%)
I only need the number, in %, no unit after it.

>  <compound>
C/C(=C\n1c2c(c3cc(C)ccc31)CCN(C)CC2)c1ccc(F)c(F)c1

>  <obs-value>
98

$$$$

// fetch inhibition at 1 µM given entry "C/C(=C\n1c2c(c3cc(C)ccc31)CCN(C)CC2)c1ccc(Cl)c(Cl)c1"
99

Please indicate inhibition at 1 µM recorded for "C/C(=C\n1c2c(c3cc(Cl)ccc31)CCN(C)CC2)c1ccc(Cl)cc1"
97

Specify reported inhibition at 1 µM for the compound shown: Cc1ccc(C(O)Cn2c3c(c4cc(Cl)ccc42)CCN(C)CC3)cn1 (centres unmarked)
80
